Source of measurements: the supplement of paper PMC10567573

B1: SLC35F2 (parent)
chain: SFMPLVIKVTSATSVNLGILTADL

Variants of: B1
Experiment: protein stability index of a GFP-peptide fusion (GPS, HEK-293T) (PSI 1-6); higher = more stable;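 note: lentivirally expressed fusions sorted by FACS into six bins by GFP to DsRed ratio, PSI derived from sequencing read proportions per bin multiplied by bin number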
Conditions: c terminus: a fixed tail appended
// reported protein stability index for each item listed
Could you respond with only the numeric value?

Answered examples (5):
SFMPLVIKVTSAASVNLGILTADL [T13A] ... 3.02
SFMPLVIKVTSATSVNLAILTADL [G18A] ... 2.54
SFMPLVIKVTSKTSVNLGILTADL [A12K] ... 4.17
SFDPLVIKVTSATSVNLGILTADL [M3D] ... 2.11
SFMPLVIKVTSATSVNLGILTADP [L24P] ... 3.07

Task: Sample SFMPLVIKVTSATSVNLGILTAQL [D23Q] — what was its protein stability index?
Output: 3.39

Task: Which protein stability index value belongs to SFMPLVIKVTSATSVNLGILTHDL [A22H] ?
Output: 3.34
